This collection of values is drawn from ChEMBL document CHEMBL5032513.

# Assay remarks: Distribution coefficient, logD of compound
# Format: physicochemical
# Settings: octanol/water

[
  {
    "Smiles text": "CCC(=O)N(CC1(N2CCN(CC(C)C)CC2)CCOCC1)c1cccc(C(F)(F)F)n1",
    "logD": 2.2
  }
]

---

# Assay remarks: Bioavailability in CD-1 mouse plasma at 40 mg/kg, ip by HPLC-MS/MS analysis
# Assay type: ADME, organism-based

[
  {
    "Smiles text": "CCC(=O)N(CC1(N2CCN(CC(C)C)CC2)CCOCC1)c1cccc(C(F)(F)F)n1",
    "bioavailability": "> 100%"
  }
]

---

# Assay remarks: Half life in CD-1 mouse at 1 mg/kg, iv by HPLC-MS/MS analysis
# Type: ADME, organism-based
# Settings: in vivo

[
  {
    "Smiles text": "CCC(=O)N(CC1(N2CCN(CC(C)C)CC2)CCOCC1)c1cccc(C(F)(F)F)n1",
    "half-life": "24 min"
  }
]
